Exercise: for every item that follows, state its recorded IC50.
molecular target: JAK2 (Homo sapiens (Human), UniProt O60674); test: Enzyme assay (Assay Example^a 1), JAK2; format: biochemical; conditions: ATP 100 μM
Give bare numbers, in µM.

Worked examples, 5 compounds total:
1. O=c1[nH]c(C2CCCCC2)c2c3cc[nH]c3ncn12: 0.046
2. c1cc2c(ncn3nnc([C@H]4CC[C@H](CN5CCCC5)CC4)c23)[nH]1: 0.077
3. N#CC1CN(C(=O)[C@H]2CC[C@H](c3nnn4cnc5[nH]ccc5c34)CC2)C1: 0.29
4. FC(F)(F)C1CCN(C[C@H]2CC[C@H](c3nnn4cnc5[nH]ccc5c34)CC2)CC1: 0.081
5. OC12CC3CC(C1)C(NC[C@H]1CC[C@H](c4nnn5cnc6[nH]ccc6c45)CC1)C(C3)C2 (some centres unmarked) [compound 303]: 0.35

Quick request: IC50 for each listed item, please.
1. COc1ccc(CNC[C@H]2CC[C@H](c3nnn4cnc5[nH]ccc5c34)CC2)cc1
2. O=C1CN(C[C@H]2CC[C@H](c3nnn4cnc5[nH]ccc5c34)CC2)CCN1
3. c1cc2c(ncn3nnc([C@H]4CC[C@H](CN5CCSC5)CC4)c23)[nH]1
4. N#Cc1ccc(CN2CCC(c3nnn4cnc5[nH]ccc5c34)CC2)cc1C#N
5. N#CCNC(=O)[C@H]1CC[C@H](c2nnn3cnc4[nH]ccc4c23)CC1
6. CCOC(=O)C=C1CCC(c2nnn3cnc4[nH]ccc4c23)CC1 (centres unmarked)

Solution:
1. 0.1
2. 0.048
3. 0.024
4. 0.052
5. 0.033
6. 0.17

Quick request: IC50 for each listed item, please.
1. CC1(NC[C@H]2CC[C@H](c3nnn4cnc5[nH]ccc5c34)CC2)CC1
2. COc1ccc(C(O)(CN[C@H]2CC[C@H](c3nnn4cnc5[nH]ccc5c34)CC2)C(F)(F)F)cc1 (some centres unmarked) [388b]
3. C#CCNC[C@H]1CC[C@H](c2nnn3cnc4[nH]ccc4c23)CC1
4. c1cc2c(ncn3nnc([C@H]4CC[C@H](CNC56CC(C5)C6)CC4)c23)[nH]1
5. COc1ccc(C(O)(CN[C@H]2CC[C@H](c3nnn4cnc5[nH]ccc5c34)CC2)C(F)(F)F)cc1OC (some centres unmarked) [390b]
6. CN[C@H]1CC[C@H](c2nnn3cnc4[nH]ccc4c23)CC1 [398b]

Solution:
[0.064, 0.025, 0.044, 0.099, 0.089, 0.11]

* * *

molecular target: Tyk2 (Homo sapiens (Human)); experiment: Enzyme assay (Assay Example^a 1), Tyk2; type: biochemical; conditions: ATP 100 μM
Sequence (P29597 whole entry): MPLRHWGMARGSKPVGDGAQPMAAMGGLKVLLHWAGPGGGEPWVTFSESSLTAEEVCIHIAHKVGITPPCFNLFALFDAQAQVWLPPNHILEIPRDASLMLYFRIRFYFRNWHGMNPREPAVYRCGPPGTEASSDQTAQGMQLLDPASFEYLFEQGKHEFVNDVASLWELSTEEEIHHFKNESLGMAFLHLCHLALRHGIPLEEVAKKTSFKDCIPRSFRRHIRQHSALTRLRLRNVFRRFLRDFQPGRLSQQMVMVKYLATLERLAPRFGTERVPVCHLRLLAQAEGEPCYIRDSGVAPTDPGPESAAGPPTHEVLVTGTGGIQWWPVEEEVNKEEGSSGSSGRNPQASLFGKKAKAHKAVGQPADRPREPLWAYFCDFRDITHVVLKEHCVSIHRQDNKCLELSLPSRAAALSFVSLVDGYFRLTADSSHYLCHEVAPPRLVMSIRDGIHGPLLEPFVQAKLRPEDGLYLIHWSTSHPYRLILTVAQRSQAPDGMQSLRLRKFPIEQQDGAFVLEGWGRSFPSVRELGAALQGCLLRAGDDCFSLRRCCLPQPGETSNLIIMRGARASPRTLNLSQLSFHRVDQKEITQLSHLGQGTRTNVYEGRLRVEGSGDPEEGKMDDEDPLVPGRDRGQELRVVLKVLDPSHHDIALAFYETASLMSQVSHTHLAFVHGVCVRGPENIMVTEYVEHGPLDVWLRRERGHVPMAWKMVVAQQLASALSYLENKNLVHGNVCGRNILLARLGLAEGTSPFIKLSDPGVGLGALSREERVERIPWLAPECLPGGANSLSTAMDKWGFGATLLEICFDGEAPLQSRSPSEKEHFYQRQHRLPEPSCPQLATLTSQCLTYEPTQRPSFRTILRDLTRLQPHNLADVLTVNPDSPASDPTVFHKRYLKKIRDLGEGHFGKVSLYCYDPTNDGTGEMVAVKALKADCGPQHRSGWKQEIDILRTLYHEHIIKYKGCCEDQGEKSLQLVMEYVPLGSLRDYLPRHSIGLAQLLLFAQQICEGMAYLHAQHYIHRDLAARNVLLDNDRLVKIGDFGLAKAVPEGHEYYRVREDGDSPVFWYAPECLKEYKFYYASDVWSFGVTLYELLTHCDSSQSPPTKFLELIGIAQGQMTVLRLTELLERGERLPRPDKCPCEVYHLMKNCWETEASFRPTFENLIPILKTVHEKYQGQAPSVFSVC
Exercise: for every item that follows, state its recorded IC50.
Answers are plain numbers, in µM.

1. CCOC(=O)CC1CCC(c2nnn3cnc4[nH]ccc4c23)CC1 (centres unmarked): 0.58
2. N#Cc1ccc(CCN[C@H]2CC[C@H](c3nnn4cnc5[nH]ccc5c34)CC2)cc1 [391b]: 0.58
3. Cc1nc(C2CCCCC2)c2c3cc[nH]c3ncn12: 0.59
4. O=C(CC(F)(F)F)NC[C@H]1CC[C@H](c2nnn3cnc4[nH]ccc4c23)CC1: 0.53

Now for another entry.
Exercise: For Tyk2 (Homo sapiens (Human)), give IC50 of the listed compound: O[C@H](CNC[C@H]1CC[C@H](c2nnn3cnc4[nH]ccc4c23)CC1)c1ccccc1
Solution: 0.05
